# method: small-molecule microarray binders of probe aCHRDL2, primary screen, biochemical, biotinylated probe, 635/667 nm fluorescence (AID 1100)
# recorded.conditions: higher = more signal
composite z-score overview
Output: the number by itself.

Worked examples, 5 compounds total:
>  <smiles.str>
C#CCN([C@@H](Cc1ccc(O)cc1)C(=O)OC)[C@@H](/C=C/C1CC1)[C@H](O)Cc1ccccc1

>  <observation.type>
composite z-score

>  <quantitative.readout>
-0.26

$$$$
>  <smiles.str>
COc1ccc(CCNC(=O)[C@@]2(Sc3ccc(C)cc3)CC(=O)N(C3Cc4ccccc4C3)[C@@H]2c2ccc(CO)cc2)cc1

>  <observation.type>
composite z-score

>  <quantitative.readout>
-0.0208

$$$$
>  <smiles.str>
O=C1N(Cc2ccccc2)Cc2ccccc2[C@@H]2OC(c3ccc(OCCCO)cc3)=N[C@]12CCS(=O)(=O)c1ccccc1

>  <observation.type>
composite z-score

>  <quantitative.readout>
1.05

$$$$
>  <smiles.str>
COC(=O)c1ccc([C@H](NC(=O)c2ccco2)[C@]2(C)C[C@H]2C2CCCCC2)cc1

>  <observation.type>
composite z-score

>  <quantitative.readout>
1.06

$$$$
>  <smiles.str>
O=C1O[C@@H](c2ccccc2)[C@@H](c2ccccc2)N2[C@@H](c3ccccc3OCCO)[C@]3(C(=O)Nc4ccc(C#CCCO)cc43)[C@@H](C(=O)N3CCCCCCC3)[C@H]12

>  <observation.type>
composite z-score

>  <quantitative.readout>
1.87

$$$$

Req: May I ask what composite z-score has been recorded for `COC(=O)c1c2oc(c1C(=O)OC)C(=O)N(Cc1ccccc1)Cc1cn(nn1)C[C@H](Cc1ccccc1)NC(=O)N[C@H](CO)CC2` ?
Resp: -0.342

Req: For the compound shown here, `COCCCNC(=O)[C@]1(CCS(=O)(=O)c2ccccc2)N=C(c2ccc(OCCCO)cc2)O[C@@H]1c1ccccc1CN=[N+]=[N-]` , give the reported composite z-score.
Resp: 1.26

---

# method: S. cerevisiae RM11-1a growth modifiers, primary screen, strain RM11-1a, OD600, basal, 24 h (AID 1177);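 also: cultures grown under basal conditions with no added stressor; test concentration not given here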
# recorded.conditions: OD600, 24 h, higher = more signal, called active from +8 up or from −8 down
Examples of molecules with documented z-score follow.
Write the number on its own, no unit after it.

>  <smiles.str>
CO[C@H]1O[C@H](CO)[C@@H](OC(=O)Nc2ccccc2-c2ccccc2)[C@H](OC(=O)Nc2ccc3c(c2)OCO3)[C@H]1OC(=O)Nc1ccc2c(c1)OCO2

>  <z-score>
2.5

$$$$
>  <smiles.str>
COc1ccccc1CN1C(=O)c2ccccc2[C@@]2(Cc3ccccc3N(CC(F)(F)F)C2=O)[C@@H]1c1ccc(CO)cc1

>  <z-score>
0.36

$$$$

Please look at the following molecule next.
Req: Entry `CCOC(=O)C[C@H]1[C@H](OC(=O)c2cc3ccccc3oc2=O)[C@@H](NC(=O)Cc2ccc(OC)cc2)c2cc(OCCCO)ccc2N1C(=O)c1ccc2ccccc2n1` : reported z-score = ?
Resp: -0.315

---

# study.target: Torsin-1A (Homo sapiens) (UniProt O14656)
# Sequence (O14656 whole entry, looked up): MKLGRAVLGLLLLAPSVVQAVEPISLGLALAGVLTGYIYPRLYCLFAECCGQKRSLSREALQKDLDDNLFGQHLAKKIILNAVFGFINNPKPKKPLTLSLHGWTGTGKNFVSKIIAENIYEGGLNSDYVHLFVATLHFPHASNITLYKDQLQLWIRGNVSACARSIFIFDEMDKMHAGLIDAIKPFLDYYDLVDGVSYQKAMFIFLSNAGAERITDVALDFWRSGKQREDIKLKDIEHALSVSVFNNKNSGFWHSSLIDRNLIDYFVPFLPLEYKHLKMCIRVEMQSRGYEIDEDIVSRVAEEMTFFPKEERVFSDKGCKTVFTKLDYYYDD
# method: small-molecule binders of mutant TOR1A in lysate, primary screen, cell lysate, small-molecule microarray, COS7 lysate, 635/667 nm fluorescence (AID 1150);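 also: score pools 667 nm emission and signal to noise measuring lysate protein binding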
# recorded.conditions: COS7 hTOR1A mutant lysate, 635 nm fluorescence, higher = more signal
observation.type: composite z-score
Answer using only a numeral; do not append any unit.

Sample records with composite z-score:
>  <compound>
COCCOC(=O)N1C(=O)[C@@]2(c3cc(C#CC4=CCCCC4)ccc31)[C@H](C(N)=O)[C@H]1C(=O)O[C@H](c3ccccc3)[C@H](c3ccccc3)N1[C@@H]2c1ccccc1OCCO

>  <study.target>
Torsin-1A (Homo sapiens) (UniProt O14656)

>  <composite z-score>
1.41

$$$$
>  <compound>
COCCOC(=O)N1C(=O)[C@@]2(c3cc(C#CC4=CCCCC4)ccc31)[C@H](c1ccc(O)cc1)N1[C@H](c3ccccc3)[C@H](c3ccccc3)OC(=O)[C@H]1[C@@H]2C(=O)N1CCN(c2ncccn2)CC1

>  <study.target>
Torsin-1A (Homo sapiens) (UniProt O14656)

>  <composite z-score>
-1.27

$$$$

Req: Dear colleague, I am looking for the recorded composite z-score of the following compound: C=C(C)C1CCC(C(O)C2C=CC3C(=O)N(C)C(=O)C3N2N2CCCCC2)CC1 (stereo unspecified)
Resp: 1.34

Req: // returns reported composite z-score for input CCCCCCCCCCC(O)C1C=CC2C(=O)N(C)C(=O)C2N1NC(=O)OC(C)(C)C (stereo unspecified)
Resp: 0.0812

Req: Reported composite z-score, compound N#Cc1ccc(NN2C(C(O)c3ccc(F)cc3)C=CC3C(=O)N(c4ccccc4)C(=O)C32)cc1 (stereo unspecified) : ____
Resp: -0.0504

Req: Look up composite z-score: `COc1ccc([Si](C)(C)[C@@H]2[C@@H](CC(=O)N(CCO)Cc3ccccc3)O[C@]3(C(=O)N(Cc4cccc(N5C(=O)c6cccc7cccc5c67)c4)c4ccccc43)[C@H]2C)cc1`
Resp: 0.502

---

# study.target: Carbonic anhydrase 2 (Homo sapiens) (UniProt P00918)
# method: CAII small-molecule binders, profiling panel, biochemical, small-molecule microarray, Alexa647-labelled CAII (AID 1122)
# recorded.conditions: CAII-A647 binding fluorescence, higher = more signal
# composite z-score annotations
Please give only the number in your answer, with no unit.

Check out these entries, answers already filled in.
>  <compound>
CCOC(=O)C1CCCCN1 (configuration not stated)

>  <composite z-score>
0.175

$$$$
>  <compound>
COc1ccc([Si](C)(C)[C@@H]2[C@@H](CC(=O)N(CCO)Cc3ccccc3)O[C@]3(C(=O)N(Cc4cccc(N5CCOC5=O)c4)c4ccccc43)[C@H]2C)cc1

>  <composite z-score>
0.596

$$$$
>  <compound>
C=CCN1C(=O)[C@@]2(O[C@@H](CCn3cc([C@H](O)c4ccccc4)nn3)[C@H]([Si](C)(C)c3ccc(OC)cc3)[C@H]2C)c2cc(N3CCC3=O)ccc21

>  <composite z-score>
0.489

$$$$
>  <compound>
CC(C)(C)N1CC=CC23O[C@@H]4C=CCOC(=O)[C@@H]4[C@H]2C(=O)N(CCCCCCO)[C@@H]3C1=O (some centres not stated)

>  <composite z-score>
0.879

$$$$
>  <compound>
CC(C)C(CO)N1C(=O)[C@@H]2C3C(=O)OCCC/C=C\[C@H]3OC23C=CCN(C(C)(C)C)C(=O)[C@@H]13 (some centres not stated)

>  <composite z-score>
0.815

$$$$

Req: Which composite z-score value belongs to [N-]=[N+]=Nc1ccccc1[C@@H]1OC(c2ccc(OCCCO)cc2)=N[C@]1(Cc1ccccc1)C(=O)NCC(O)CO (some centres not stated) ?
Resp: 0.765

Req: Return reported composite z-score; argument: `COC(=O)[C@@]1(Cc2ccc(F)cc2)[C@H]2c3cc(C(=O)N4CCCC4)n(CCN4CNCC4=O)c3C[C@H]2CN1C(=O)c1ccccc1`
Resp: 0.766

---

# study.target: Neurogenic locus notch homolog protein 3 (Homo sapiens)
# method: NOTCH3 binders on small-molecule microarray, primary screen, biochemical, 635/667 nm fluorescence (AID 1096)
# recorded.conditions: NOTCH3 binding, 635 nm fluorescence, higher = more signal
Reported composite z-score values follow for various compounds
Enter a number only.

Check out these entries, answers already filled in.
>  <compound>
COC(=O)c1c2oc(c1C(=O)OC)C(=O)N(Cc1ccccc1)Cc1cn(nn1)C[C@H](Cc1ccccc1)NC(=O)N[C@H](CO)CC2

>  <composite z-score>
0.43

$$$$
>  <compound>
O=C(CS)NCCCCCCNC(=O)[C@H]1C[C@H]2C(=O)N[C@@H](Cc3ccccc3)C(=O)N2[C@H]1c1ccc(O)cc1

>  <composite z-score>
0.635

$$$$
>  <compound>
COCCOC(=O)N1C(=O)[C@@]2(c3cc(C#CC4=CCCCC4)ccc31)[C@H](C(N)=O)[C@H]1C(=O)O[C@H](c3ccccc3)[C@H](c3ccccc3)N1[C@@H]2c1ccccc1OCCO

>  <composite z-score>
1.11

$$$$
>  <compound>
C[C@@H]1ON(c2ccc(C(=O)OC(C)(C)C)cc2)[C@H](c2ccc(O)cc2)[C@H]1C(=O)N1C(=O)OC[C@H]1Cc1ccccc1

>  <composite z-score>
1.12

$$$$
>  <compound>
N#Cc1ccc(C(O)C2C=CC3C(=O)N(c4ccccc4)C(=O)C3N2Nc2ccccc2)cc1 (configuration not stated)

>  <composite z-score>
0.744

$$$$

Req: Given the entry C=CCC(OC(C)=O)[C@@H]1[C@@H](N(Cc2cccc3ccccc23)C(=O)Cc2ccc(F)cc2)c2cc(OCCCO)ccc2N1C(=O)c1ccc2ccccc2n1 (some centres not stated) , report its measured composite z-score.
Resp: 0.104

Req: // lookup composite z-score for `COC(=O)[C@@]1(Cc2ccc(F)cc2)[C@H]2c3cc(C(=O)N4CCCC4)n(CCN4CNCC4=O)c3C[C@H]2CN1C(=O)c1ccccc1`
Resp: 0.842
